Just for reference, PubChem BioAssay AID720671 is where these values come from.

Molecular target: Botulinum neurotoxin type F light chain protease (Clostridium botulinum)
Experiment: inhibition of botulinum toxin F protease cleavage – biochemical, multiplex microsphere, Powder Set 03, dose response (AID 720671)
Conditions: multiplex microsphere protease cleavage assay, BoNT/F LC
The source made the active and inactive calls. How the calls were made is not given here.
Possible outcomes: 1 for active, -1 for inactive

{"smiles.code": "Fc1ccc(-c2nc3nc(-c4ccccc4)cn3nc2-c2ccc(F)cc2)cc1", "category.label": 1}
{"smiles.code": "CC(C)CS(=O)(=O)Nc1ccc2nc(-c3ccccc3)c(-c3ccccc3)nc2c1", "category.label": -1}
{"smiles.code": "Cc1ccc(-c2nc3nc(-c4ccc(OC(F)(F)F)cc4)cn3nc2-c2ccc(C)cc2)cc1", "category.label": -1}
{"smiles.code": "COc1ccc(-c2nc3nc(-c4ccc(C#N)cc4)cn3nc2-c2ccc(OC)cc2)cc1", "category.label": -1}
{"smiles.code": "CCCS(=O)(=O)Nc1ccc2nc(-c3cccs3)c(-c3cccs3)nc2c1", "category.label": -1}
{"smiles.code": "COc1ccc(-c2nc3nc(-c4ccccc4OC)cn3nc2-c2ccc(OC)cc2)cc1", "category.label": 1}
{"smiles.code": "COc1ccc(-c2nc3nc(-c4cccc(OC)c4)cn3nc2-c2ccc(OC)cc2)cc1", "category.label": -1}
{"smiles.code": "CC(C)OC(=O)Nc1ccc2nc(-c3cccs3)c(-c3cccs3)nc2c1", "category.label": -1}
{"smiles.code": "N#Cc1ccc(-c2cn3nc(-c4ccc(F)cc4)c(-c4ccc(F)cc4)nc3n2)cc1", "category.label": -1}
{"smiles.code": "CC(C)(C)C(=O)Nc1ccc2nc(-c3ccccc3)c(-c3ccccc3)nc2c1", "category.label": -1}
{"smiles.code": "CCNC(=O)Nc1ccc2nc(-c3ccccc3)c(-c3ccccc3)nc2c1", "category.label": -1}
{"smiles.code": "COc1ccc(-c2nc3nc(-c4ccccc4)cn3nc2-c2ccc(OC)cc2)cc1", "category.label": -1}
{"smiles.code": "COC(=O)Nc1ccc2nc(-c3ccccc3)c(-c3ccccc3)nc2c1", "category.label": -1}
{"smiles.code": "CCS(=O)(=O)Nc1ccc2nc(-c3ccccc3)c(-c3ccccc3)nc2c1", "category.label": -1}
{"smiles.code": "Cc1ccc(-c2nc3nc(-c4ccccc4)cn3nc2-c2ccc(C)cc2)cc1", "category.label": 1}
{"smiles.code": "O=C(Nc1ccc2nc(-c3ccccc3)c(-c3ccccc3)nc2c1)OCc1ccccc1", "category.label": -1}
{"smiles.code": "Fc1ccc(-c2nc3nc(-c4ccc(OC(F)(F)F)cc4)cn3nc2-c2ccc(F)cc2)cc1", "category.label": -1}
{"smiles.code": "CC(=O)Nc1ccc2nc(-c3ccccc3)c(-c3ccccc3)nc2c1", "category.label": -1}
{"smiles.code": "CS(=O)(=O)c1ccc(-c2cn3nc(-c4ccccc4)c(-c4ccccc4)nc3n2)cc1", "category.label": -1}
{"smiles.code": "CCC(=O)Nc1ccc2nc(-c3ccccc3)c(-c3ccccc3)nc2c1", "category.label": -1}
{"smiles.code": "O=C(Nc1ccc2nc(-c3ccccc3)c(-c3ccccc3)nc2c1)C1CCC1", "category.label": -1}
{"smiles.code": "Fc1ccc(-c2cn3nc(-c4ccc(F)cc4)c(-c4ccc(F)cc4)nc3n2)cc1", "category.label": 1}
{"smiles.code": "CCC(=O)Nc1ccc2nc(-c3cccs3)c(-c3cccs3)nc2c1", "category.label": -1}
